- Test system: Mycobacterium tuberculosis
- experiment-notes: Antitubercular activity against Mycobacterium tuberculosis H37Rv after 9 days by resazurin reduction assay
- Type: functional
- measurement-parameters: 216 h
measured-property: MIC (µM)
Number in µM, nothing else.

Worked examples follow.
# smiles-text, measured-property, endpoint-value
records = [
    ("CO[C@H]1/C=C/O[C@@]2(C)Oc3c(C)c(O)c4c(O)c(c(/C=N/N5CCN(C)CC5)c(O)c4c3C2=O)NC(=O)/C(C)=C\\C=C\\[C@H](C)[C@H](O)[C@@H](C)[C@@H](O)[C@@H](C)[C@H](OC(C)=O)[C@@H]1C", "MIC", 0.12),
    ("CC(C)CCc1c2[nH]c3ccccc3nc-2c2c(c1=O)CCCC2", "MIC", 9.75),
]

Attention now turns to another entry.
Sure, the documented MIC for CC(C)CCC1=C(O)C(=O)C2=C(CCCC2)C1=O is 101

====

- Test system: Mycobacterium tuberculosis
- experiment-notes: Antitubercular activity against Mycobacterium tuberculosis H37Rv after 9 days by resazurin reduction assay
- Type: functional
- measurement-parameters: 216 h
Please note: MIC exactly at 200 µM is not fulfilled. Only values below 200 µM get fulfilled.

Recorded results for 3 compounds are shown here.
# compound, classification
records = [
    ("CC(C)CC1=C(OC2(CC(C)C)C(=O)C3=C(CCCC3)c3nc4ccccc4nc32)C(=O)C2=C(CCCC2)C1=O (stereo unspecified)", "fulfilled"),
    ("CC(C)CC1=C(O)C(=O)c2ccccc2C1=O", "not fulfilled"),
    ("CC(C)=CCC1=C(O)C(=O)c2ccccc2C1=O", "not fulfilled"),
]

## Task Would you kindly verify if MIC of CC(C)=CC1=C(O)C(=O)c2ccccc2C1=O is strictly less than 200 µM?
## Result not fulfilled

## Task Please determine if CC(C)Cc1c2[nH]c3ccccc3nc-2c2c(c1=O)CCCC2 is below 200 µM in terms of MIC.
## Result not fulfilled

## Task Please let me know if C=CCc1c2[nH]c3ccccc3nc-2c2ccccc2c1=O shows MIC below 200 µM.
## Result fulfilled

## Task # TODO verify MIC < 200 µM strictly for this compound: C=CCC1=C(O)C(=O)c2ccccc2C1=O
## Result not fulfilled

## Task MIC strictly < 200 µM for this compound? CC(C)=Cc1c2[nH]c3ccccc3nc-2c2ccccc2c1=O
## Result fulfilled

## Task Bench note: check whether NNC(=O)c1ccncc1 shows MIC below 200 µM
## Result fulfilled

## Task I'd appreciate it if you could check whether CC(C)CCC1=C(OC2(CCC(C)C)C(=O)C3=C(CCCC3)c3nc4ccccc4nc32)C(=O)C2=C(CCCC2)C1=O (stereo unspecified) has MIC smaller than 200 µM.
## Result fulfilled

## Task Lab log: compare recorded MIC with 200 µM; is it strictly lower for CC(C)CC1=C(O)C(=O)C2=C(CCCC2)C1=O ?
## Result fulfilled

## Task Input CCCC1=C(O)C(=O)c2ccccc2C1=O ; condition: MIC strictly below 200 µM. Does it hold?
## Result not fulfilled

## Task # strict comparison: is reported MIC < 200 µM? input = CCCC1=C(O)C(=O)C2=C(CCCC2)C1=O
## Result not fulfilled

## Task Find out if reported MIC for C=CCC1=C(OC2(CC=C)C(=O)c3ccccc3-c3nc4ccccc4nc32)C(=O)c2ccccc2C1=O (stereo unspecified) is less than 200 µM
## Result not fulfilled

## Task Is 200 µM strictly greater than the compound's reported MIC? compound: CC(C)CCc1c2[nH]c3ccccc3nc-2c2ccccc2c1=O
## Result fulfilled

Sourced from ChEMBL document CHEMBL1828530
